// values below are Ki; system is Mu-type opioid receptor (Homo sapiens, UniProt P35372)
Sequence (P35372 whole entry): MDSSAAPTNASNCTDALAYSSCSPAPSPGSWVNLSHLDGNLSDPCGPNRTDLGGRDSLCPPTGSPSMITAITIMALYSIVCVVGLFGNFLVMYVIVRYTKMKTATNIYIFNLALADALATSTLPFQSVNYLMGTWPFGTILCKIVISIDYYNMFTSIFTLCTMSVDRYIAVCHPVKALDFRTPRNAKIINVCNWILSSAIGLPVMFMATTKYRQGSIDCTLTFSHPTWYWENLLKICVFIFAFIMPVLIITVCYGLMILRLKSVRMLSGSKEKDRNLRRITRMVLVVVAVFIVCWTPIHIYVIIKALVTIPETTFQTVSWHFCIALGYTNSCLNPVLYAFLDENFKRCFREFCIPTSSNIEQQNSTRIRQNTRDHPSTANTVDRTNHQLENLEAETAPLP

Worked examples, 5 compounds total:
- COMPOUND: "CN(C)C(=O)[C@@H](Cc1ccccc1F)CN1CCC2(CC1)OCCc1cc(F)sc12.O=C(O)C(O)C(O)C(=O)O"
  Ki: "> 400 nM"
- COMPOUND: "CN(C)C(=O)C(Cc1ccccc1Cl)CN1CCC2(CC1)OCCc1cc(F)sc12 (single isomer, unassigned; (+))"
  Ki: "> 400 nM"
- COMPOUND: "CN(C)C(=O)C(Cc1c(F)cccc1F)CN1CCC2(CC1)OCCc1ccsc12 (racemic)"
  Ki: "> 400 nM"
- COMPOUND: "CN(C)C(=O)C(Cc1ccccc1Cl)CN1CCC2(CC1)OCCc1cc(Cl)sc12.O=C(O)C(O)C(O)C(=O)O (single isomer, unassigned; (-))"
  Ki: "> 400 nM"
- COMPOUND: "Cc1cccc2c1CC[C@H](CN1CCC(c3c(Cl)cccc3Cl)CC1)C[C@@H]2O"
  Ki: "> 400 nM"

Ki for Mu-type opioid receptor (Homo sapiens, UniProt P35372) with input CN(C)C(=O)C(Cc1ccccc1Cl)CN1CCC2(CC1)OCCc1ccsc12 (racemic) equals > 400 nM

Ki for Mu-type opioid receptor (Homo sapiens, UniProt P35372) with input CN(C)C(=O)C(Cc1ccccc1F)CN1CCC2(CC1)OCCc1ccsc12 (racemic) equals > 400 nM

Ki for Mu-type opioid receptor (Homo sapiens, UniProt P35372) with input CN(C)C(=O)C(Cc1ccccc1F)CN1CCC2(CC1)OCCc1cc(Cl)sc12.O=C(O)C(O)C(O)C(=O)O (single isomer, unassigned; (+)) equals > 400 nM

Ki for Mu-type opioid receptor (Homo sapiens, UniProt P35372) with input CN(C)C(=O)C(Cc1cscn1)CN1CCC2(CC1)OCc1ccc(F)cc12 (stereo not given) equals > 400 nM

Ki for Mu-type opioid receptor (Homo sapiens, UniProt P35372) with input CN(C)C(=O)C(CN1CCC2(CC1)OCCc1ccsc12)Cn1cccn1 (racemic) equals > 400 nM
